Target: Chromobox protein homolog 1 (Homo sapiens)
Assay: qHTS Validation Assay for Inhibitors of HP1-beta Chromodomain Interactions with Methylated Histone Tails (AID 488953); further: nearly all actives have a fitted effect of over 50% in size
Conditions: HP1-beta chromodomain / methylated histone peptide binding assay; series mostly up to 114 µM
Results filed as inconclusive are left out. The source made the active and inactive calls. The call rests on the fitted dose curve; in most records, active means well fitted inhibition curve with a large enough effect; inconclusive means small, poorly fitted or top-dose-only effect; inactive means no such curve, though single readings can be large or run the other way.
Labels: active, inactive

INSERT INTO measurements (molecule, answer_label) VALUES
  ('COc1ccc2c(c1)C13CCCCC1C(C2)N(C)CC3 (configuration not stated)', 'inactive'),
  ('NCC(CP(=O)(O)O)c1ccc(Cl)cc1 (configuration not stated)', 'inactive'),
  ('CNc1ccc2oc(C[C@H]3O[C@@]4(CC[C@H]3C)O[C@H]([C@H](C)C(=O)c3ccc[nH]3)[C@H](C)C[C@H]4C)nc2c1C(=O)O', 'active'),
  ('CCCN1CCc2cc(O)cc3c2[C@H]1Cc1ccc(O)c(O)c1-3', 'active'),
  ('O=S1(=O)N(CCN2CC=C(c3c[nH]c4cc(F)ccc34)CC2)c2cccc3c2N1CCC3', 'active'),
  ('CC(C)(C)c1o[nH]c(=O)c1CC(N)C(=O)O (configuration not stated)', 'inactive'),
  ('CCCn1c(=O)c2[nH]c(C3CCCC3)nc2n(CCCOC(=O)c2ccc(S(=O)(=O)F)cc2)c1=O', 'inactive');
